- system.under.test: HLA-A*31:01
- assay.explanation: IEDB peptide-MHC binding, purified MHC/direct/fluorescence; filed as Kd, often an IC50 or EC50 that approximates it; bounds were set here for any values at or beyond the usual limits of such assays
- condition.label: source organism: Homo sapiens
quantity.measured: Kd (µM)
Write it as a number; the unit µM goes unstated.

## Task Give the reported Kd for this sequence. KSDPIMLLK
## Result 8.13

###

- system.under.test: HLA-A*02:12
- assay.explanation: IEDB peptide-MHC binding, purified MHC/competitive/fluorescence; filed as Kd, often an IC50 or EC50 that approximates it; bounds were set here for any values at or beyond the usual limits of such assays
- condition.label: source organism: Burkholderia mallei SAVP1
pKd: −log10 of the molar value.
quantity.measured: pKd

## Task Give the reported pKd for this sequence. RFNAIWFNH
## Result ≤ 4.70
